From: patent US12036199B1

- measurement description: In vitro stability of 10 μM DB104 incubated in fresh human plasma (HRMS / LC-MS detection of DB104, intermediates and L-DOPA)
- Type: in vitro ADME
- conditions: human, fresh human plasma, human plasma, summary estimate; read-out: in vitro half-life estimated, human plasma (converted)
endpoint name: half-life at 10 μM

{"columns": ["compound structure", "value reported"],
 "data": [
  ["CCCCCCCCCCCCOC(=O)[C@@H](N)Cc1ccc(OC(=O)CCCCCCCCCCC)c(OC(=O)CCCCCCCCCCC)c1", "~12 h"]
]}

* * *

- measurement description: In vitro stability of 10 μM DB104 incubated in fresh human plasma (HRMS / LC-MS detection of DB104, intermediates and L-DOPA)
- Assay type: in vitro ADME
- conditions: human, fresh human plasma, 10 μM DB104, fresh human plasma, 0-264 h; read-out: In vitro half-life in human plasma (converted)
- Method: 10 μM DB104 (DB104 is identified above and is one of the Derivatives of the present invention) was incubated in fresh plasma and phosphate buffer saline (PBS) in multiple aliquots, and each aliquot was divided into two equal halves at the following time points: 0, 1, 2, 4, 6, 24, 48, 72, 96, 120, 144, 168, 192, 216, 240, and 264 h. […] The other half was quenched with perchloric acid and analyzed on an AB Sciex 7500 mass spectrometer to detect L-DOPA. […]

{"columns": ["compound", "half-life at 10 μM [min]"],
 "data": [
  ["CCCCCCCCCCCCOC(=O)[C@@H](N)Cc1ccc(OC(=O)CCCCCCCCCCC)c(OC(=O)CCCCCCCCCCC)c1 [DB104]", 786]
]}
